test: Solubility test in biological media (SGF, FaSSIF, FeSSIF) with XRPD of samples after the test; type: physicochemical; details: FeSSIF, thermodynamic from solid, 2 h
recorded_endpoint: solubility at 2 h (µg/mL)
Express your answer in µg/mL, writing the number without its unit.

Q: Requested read-out: solubility at 2 h. Entry: COc1cc2nn([C@H]3CC[C@](C)(O)CC3)cc2cc1NC(=O)c1cccc(C)[n+]1[O-] [crystalline form VII]
A: 65

====

assay: Solubility test in biological media (SGF, FaSSIF, FeSSIF) with XRPD of samples after the test; assay type: physicochemical; details: FeSSIF, thermodynamic from solid, 0.5 h
recorded_endpoint: solubility at 0.5 h
# output: numeric value plus its unit

Q: Requested read-out: solubility at 0.5 h. Entry: COc1cc2nn([C@H]3CC[C@](C)(O)CC3)cc2cc1NC(=O)c1cccc(C)[n+]1[O-] [crystalline form VII]
A: 68 µg/mL

====

assay: Solubility test in biological media (SGF, FaSSIF, FeSSIF) with XRPD of samples after the test; format: physicochemical; conditions: SGF, simulated gastric fluid, thermodynamic from solid, 24 h
recorded_endpoint: solubility at 24 h (µg/mL)
Express your answer in µg/mL, writing the number without its unit.

Q: Requested read-out: solubility at 24 h. Entry: COc1cc2nn([C@H]3CC[C@](C)(O)CC3)cc2cc1NC(=O)c1cccc(C)[n+]1[O-] [crystalline form VII]
A: 92

====

test: Solubility test in biological media (SGF, FaSSIF, FeSSIF) with XRPD of samples after the test; assay type: physicochemical; details: FaSSIF, thermodynamic from solid, 24 h
recorded_endpoint: solubility at 24 h (µg/mL)
Express your answer in µg/mL, writing the number without its unit.

Q: Requested read-out: solubility at 24 h. Entry: COc1cc2nn([C@H]3CC[C@](C)(O)CC3)cc2cc1NC(=O)c1cccc(C)[n+]1[O-] [crystalline form III]
A: 7
